# EXPERIMENTAL SYSTEM: human CD3 on cells (human PBMC; Jurkat TCR/CD3 NFAT reporter cells) (human, UniProt P07766 23-207; P04234 22-171; P09693 23-182)
# Sequence (P07766 23-207, chain 1 of 3): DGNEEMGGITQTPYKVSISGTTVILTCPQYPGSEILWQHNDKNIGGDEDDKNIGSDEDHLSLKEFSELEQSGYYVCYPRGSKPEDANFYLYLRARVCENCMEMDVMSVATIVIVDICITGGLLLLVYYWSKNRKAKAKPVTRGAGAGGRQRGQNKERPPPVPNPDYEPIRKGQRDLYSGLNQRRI
# Sequence (P04234 22-171, chain 2 of 3): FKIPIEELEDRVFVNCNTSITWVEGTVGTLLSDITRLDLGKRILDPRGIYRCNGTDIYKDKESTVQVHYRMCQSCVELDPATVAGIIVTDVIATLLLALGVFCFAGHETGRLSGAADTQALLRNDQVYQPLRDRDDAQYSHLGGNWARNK
# Sequence (P09693 23-182, chain 3 of 3): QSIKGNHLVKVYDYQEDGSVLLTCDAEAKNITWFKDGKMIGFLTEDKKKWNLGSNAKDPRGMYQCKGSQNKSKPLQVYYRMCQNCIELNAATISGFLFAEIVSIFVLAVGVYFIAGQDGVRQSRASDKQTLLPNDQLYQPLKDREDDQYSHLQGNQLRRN
# PROCEDURE SUMMARY: cell-based or functional assay

BINDER	CD3-NFAT Activity by CD3 mAb
Hu192A7B9-20 (antibody, V domains shown, humanized mAb) VH: EVQLQESGPGLVKPSETLSLTCTVSGGSISSYNVHWVRQPPGKGLEWIGRMRYNGDTSYNSALKSRVTISRDTSKNQFSLKLSSVTAADTAVYYCARGPRGGYYSALFDYWGQGTMVTVSS VL: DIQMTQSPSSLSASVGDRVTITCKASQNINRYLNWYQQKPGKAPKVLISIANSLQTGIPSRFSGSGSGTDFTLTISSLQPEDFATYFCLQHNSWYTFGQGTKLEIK	> 50 % SP34
Hu153A6B1-4 (antibody, V domains shown, humanized mAb) VH: EVQLQESGPGLVKPSETLSLTCTVSGGSISSYNIHWVRQPPGKGLEWMGRIRYNGDTSYNSALKSRLTISRDTSKNQFSLKLSSVTAADTAVYYCTRGPYGGSREPLFDYWGQGTMVTVSS VL: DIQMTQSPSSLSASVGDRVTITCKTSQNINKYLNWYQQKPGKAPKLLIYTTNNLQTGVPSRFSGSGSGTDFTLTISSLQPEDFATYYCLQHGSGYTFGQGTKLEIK	≤ 50 % SP34
Hu192A7B9-18 (antibody, V domains shown, humanized mAb) VH: EVQLQESGPGLVKPSETLSLTCTVSGFSLTSYNVHWVRQPPGKGLEWMGRMRYNGDTSYNSALKSRLTISRDTSKNQVSLKLSSVTAADTAVYYCTRGPRGGYYSALFDYWGQGTMVTVSS VL: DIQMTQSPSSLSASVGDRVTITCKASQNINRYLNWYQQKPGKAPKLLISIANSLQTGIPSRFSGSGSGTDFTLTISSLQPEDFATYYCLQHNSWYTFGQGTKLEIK	> 50 % SP34
Hu153A6B1-6 (antibody, V domains shown, humanized mAb) VH: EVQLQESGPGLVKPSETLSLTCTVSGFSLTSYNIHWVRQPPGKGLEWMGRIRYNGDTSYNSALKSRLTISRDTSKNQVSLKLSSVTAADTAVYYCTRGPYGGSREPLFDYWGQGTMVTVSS VL: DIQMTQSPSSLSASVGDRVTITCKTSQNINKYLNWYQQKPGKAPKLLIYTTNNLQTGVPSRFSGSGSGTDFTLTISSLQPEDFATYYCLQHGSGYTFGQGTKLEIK	> 50 % SP34
Hu153A6B1-17 (antibody, V domains shown, humanized mAb) VH: EVQLQESGPGLVKPSETLSLTCTVSGFSISSYNIHWVRQPPGKGLEWMGRIRYNGDTSYNSALKSRLTISRDTSKNQVSLKLSSVTAADTAVYYCTRGPYGGSREPLFDYWGQGTMVTVSS VL: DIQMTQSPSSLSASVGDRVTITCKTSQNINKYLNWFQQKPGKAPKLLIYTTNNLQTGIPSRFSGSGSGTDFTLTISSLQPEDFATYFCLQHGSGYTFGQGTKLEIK	> 50 % SP34
